Reference source: PubChem BioAssay AID1963871

# Test system: KRAS-mutant PDC multicell tumor spheroid viability
# EXPERIMENT_DESCRIPTION: Anticancer human tumor 521955-158-R2-J5-PDC patient-derived pancreatic carcinoma cell line growth inhibition [KRAS2]
# SETUP_CONDITIONS: second compound 10 µM; first compound 0.0316 µM; active compounds read low

# COMPOUND, VALUE_UNIT, viability, T/C
measured = [
    ("CN(C)C/C=C/C(=O)Nc1cc2c(Nc3ccc(F)c(Cl)c3)ncnc2cc1O[C@H]1CCOC1 + C=CC(=O)N1CCN(c2nc(=O)n(-c3c(C)ccnc3C(C)C)c3nc(-c4c(O)cccc4F)c(F)cc23)C(C)C1", "%", 51.9),
    ("CC(=O)OC12COC1CC(O)C1(C)C(=O)C(O)C3=C(C)C(OC(=O)C(O)C(NC(=O)OC(C)(C)C)c4ccccc4)CC(O)(C(OC(=O)c4ccccc4)C21)C3(C)C (stereo not given) + COc1cc2nc(C)nc(NC(C)c3cc(N)cc(C(F)(F)F)c3)c2cc1OC1CCOC1", "%", 13.4),
    ("COc1cc2nccc(Oc3ccc(NC(=O)C4(C(=O)Nc5ccc(F)cc5)CC4)cc3)c2cc1OC + C=CC(=O)N1CCN(c2nc(=O)n(-c3c(C)ccnc3C(C)C)c3nc(-c4c(O)cccc4F)c(F)cc23)C(C)C1", "%", 55.2),
    ("O=C(c1cc(Cc2n[nH]c(=O)c3ccccc23)ccc1F)N1CCN(C(=O)C2CC2)CC1 + COc1cc2nc(C)nc(NC(C)c3cc(N)cc(C(F)(F)F)c3)c2cc1OC1CCOC1", "%", 107),
    ("Cn1ncnc1[C@H]1c2n[nH]c(=O)c3cc(F)cc(c23)N[C@@H]1c1ccc(F)cc1 + C=CC(=O)N1CCN(c2nc(=O)n(-c3c(C)ccnc3C(C)C)c3nc(-c4c(O)cccc4F)c(F)cc23)C(C)C1", "%", 59.8),
]

----------
# System: KRAS-mutant PDC multicell tumor spheroid viability
# EXPERIMENT_DESCRIPTION: Anticancer human tumor 521955-158-R2-J5-PDC cell line growth inhibition [KRAS2]; active means viability on the fitted dose curve at most 10% of control; inactive means the rest;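 also: viability read after seven days of drug exposure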
# SETUP_CONDITIONS: second compound 3.16 µM; first compound 0.01 µM
Outcomes: active, inactive

# MOLECULE, CAT
records = [
    ("Cn1ncnc1[C@H]1c2n[nH]c(=O)c3cc(F)cc(c23)N[C@@H]1c1ccc(F)cc1 + C=CC(=O)N1CCN(c2nc(OCC3CCCN3C)nc3c2CCN(c2cccc4cccc(C)c24)C3)CC1CC#N", "active"),
    ("CC1COCCN1c1cc(-c2ccnn2C)c2ccnc(-c3ccn[nH]3)c2n1 (stereo not drawn) + C=CC(=O)N1CCN(c2nc(OCC3CCCN3C)nc3c2CCN(c2cccc4cccc(C)c24)C3)CC1CC#N", "active"),
    ("CC(C)n1nc(-c2ccc3oc(N)nc3c2)c2c(N)ncnc21 + C=CC(=O)N1CCN(c2nc(OCC3CCCN3C)nc3c2CCN(c2cccc4cccc(C)c24)C3)CC1CC#N", "inactive"),
]

----------
# Test system: KRAS-mutant PDC multicell tumor spheroid viability
# EXPERIMENT_DESCRIPTION: Anticancer human tumor 521955-158-R2-J5-PDC cell line growth inhibition [KRAS2];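 also: viability read after seven days of drug exposure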
# SETUP_CONDITIONS: second compound 1 µM; first compound 0.0316 µM; active compounds read low
Binned viability, T/C; ranges: bottom: < 60%; middle: ≥ 60% and < 90%; top: ≥ 90%

# MOLECULE, CAT
data = [
    ("CC(=O)OC12COC1CC(O)C1(C)C(=O)C(O)C3=C(C)C(OC(=O)C(O)C(NC(=O)OC(C)(C)C)c4ccccc4)CC(O)(C(OC(=O)c4ccccc4)C21)C3(C)C (stereo unspecified) + C=CC(=O)N1CCN(c2nc(OCC3CCCN3C)nc3c2CCN(c2cccc4cccc(C)c24)C3)CC1CC#N", "bottom"),
    ("CC(=O)OC12COC1CC(O)C1(C)C(=O)C(O)C3=C(C)C(OC(=O)C(O)C(NC(=O)OC(C)(C)C)c4ccccc4)CC(O)(C(OC(=O)c4ccccc4)C21)C3(C)C (stereo unspecified) + CNCc1ccccc1-c1csc(C(C)Nc2nc(C)nc3cc(OC)c(OC)cc23)c1", "bottom"),
    ("CCNC(=O)CC1N=C(c2ccc(Cl)cc2)c2cc(OC)ccc2-n2c(C)nnc21 (stereo unspecified) + C=CC(=O)N1CCN(c2nc(OCC3CCCN3C)nc3c2CCN(c2cccc4cccc(C)c24)C3)CC1CC#N", "middle"),
    ("CC(C)n1nc(-c2ccc3oc(N)nc3c2)c2c(N)ncnc21 + C=CC(=O)N1CCN(c2nc(=O)n(-c3c(C)ccnc3C(C)C)c3nc(-c4c(O)cccc4F)c(F)cc23)C(C)C1", "bottom"),
    ("CCNC(=O)CC1N=C(c2ccc(Cl)cc2)c2cc(OC)ccc2-n2c(C)nnc21 (stereo unspecified) + CNCc1ccccc1-c1csc(C(C)Nc2nc(C)nc3cc(OC)c(OC)cc23)c1", "top"),
    ("COC(=O)c1ccc2c(C(=Nc3ccc(N(C)C(=O)CN4CCN(C)CC4)cc3)c3ccccc3)c(O)[nH]c2c1 + CNCc1ccccc1-c1csc(C(C)Nc2nc(C)nc3cc(OC)c(OC)cc23)c1", "top"),
    ("O=C(c1cc(Cc2n[nH]c(=O)c3ccccc23)ccc1F)N1CCN(C(=O)C2CC2)CC1 + COc1cc2nc(C)nc(NC(C)c3cc(N)cc(C(F)(F)F)c3)c2cc1OC1CCOC1", "top"),
    ("Cn1ncnc1[C@H]1c2n[nH]c(=O)c3cc(F)cc(c23)N[C@@H]1c1ccc(F)cc1 + C=CC(=O)N1CCN(c2nc(OCC3CCCN3C)nc3c2CCN(c2cccc4cccc(C)c24)C3)CC1CC#N", "middle"),
    ("O=C(c1cc(Cc2n[nH]c(=O)c3ccccc23)ccc1F)N1CCN(C(=O)C2CC2)CC1 + CC1OCC2(CCN(c3cnc(Sc4ccnc(N)c4Cl)c(N)n3)CC2)C1N", "top"),
    ("CCN1CCN(Cc2ccc(Nc3ncc(F)c(-c4cc(F)c5nc(C)n(C(C)C)c5c4)n3)nc2)CC1 + C=CC(=O)N1CCN(c2nc(OCC3CCCN3C)nc3c2CCN(c2cccc4cccc(C)c24)C3)CC1CC#N", "middle"),
    ("COC(=O)c1ccc2c(C(=Nc3ccc(N(C)C(=O)CN4CCN(C)CC4)cc3)c3ccccc3)c(O)[nH]c2c1 + COc1cc2nc(C)nc(NC(C)c3cc(N)cc(C(F)(F)F)c3)c2cc1OC1CCOC1", "top"),
    ("CN(C)C/C=C/C(=O)Nc1cc2c(Nc3ccc(F)c(Cl)c3)ncnc2cc1O[C@H]1CCOC1 + CC1OCC2(CCN(c3cnc(Sc4ccnc(N)c4Cl)c(N)n3)CC2)C1N", "middle"),
    ("Cn1ncnc1[C@H]1c2n[nH]c(=O)c3cc(F)cc(c23)N[C@@H]1c1ccc(F)cc1 + CC1OCC2(CCN(c3cnc(Sc4ccnc(N)c4Cl)c(N)n3)CC2)C1N", "bottom"),
    ("CC(C)n1nc(-c2ccc3oc(N)nc3c2)c2c(N)ncnc21 + CC1OCC2(CCN(c3cnc(Sc4ccnc(N)c4Cl)c(N)n3)CC2)C1N", "bottom"),
    ("CC(C)NCC(C(=O)N1CCN(c2ncnc3c2C(C)CC3O)CC1)c1ccc(Cl)cc1 (stereo unspecified) + CC1OCC2(CCN(c3cnc(Sc4ccnc(N)c4Cl)c(N)n3)CC2)C1N", "middle"),
    ("CC1OCC2(CCN(c3cnc(Sc4ccnc(N)c4Cl)c(N)n3)CC2)C1N (stereo unspecified) + C=CC(=O)N1CCN(c2nc(OCC3CCCN3C)nc3c2CCN(c2cccc4cccc(C)c24)C3)CC1CC#N", "middle"),
]
